// provenance: the supplement of paper PMC12669032

- System: Collinsella aerofaciens
- assay-text: growth AUC relative to DMSO control (median of replicates) (fraction); higher = more growth (less inhibition), active = hit call of the paper
- study-conditions: 20 µM; 24 h
Listed next: entries and their corresponding growth AUC.

Examples from the recorded data:
>>> value_measured("Cc1cccc(C)c1N(C(=O)CCl)C1CCOC1=O (configuration not stated)")
"0.959 (inactive)"
>>> value_measured("C=CCc1ccc(OC)c(OC)c1")
"1.03 (inactive)"
>>> value_measured("CC(C)OC(=O)[C@@H](C)N(C(=O)c1ccccc1)c1ccc(F)c(Cl)c1")
"0.954 (inactive)"
>>> value_measured("CCOC(=O)C(C)Oc1ccc(Oc2cnc3cc(Cl)ccc3n2)cc1 (configuration not stated)")
"1.02 (inactive)"
>>> value_measured("CCCCCCCCCCCC[N+](C)(C)Cc1ccc(CC)cc1.[Cl-]")
"0.502 (active)"

Qu. Which value of growth AUC has been reported for CCCCCCCC/C=C\CCCCCCCC(N)=O in the records?
Ans. 0.857 (inactive)

Qu. Which value of growth AUC has been reported for CCNc1nc(NC(C)CC)nc(OC)n1 (configuration not stated) in the records?
Ans. 1.13 (inactive)

Qu. Which value of growth AUC has been reported for CNc1nc(NC(C)C)nc(SC)n1 in the records?
Ans. 0.986 (inactive)

Qu. Which value of growth AUC has been reported for CCc1ccc(C(c2ccc(CC)cc2)C(Cl)Cl)cc1 in the records?
Ans. 0.901 (inactive)

Qu. Which value of growth AUC has been reported for COC(=O)c1c(Cl)c(Cl)c(C(=O)OC)c(Cl)c1Cl in the records?
Ans. 0.986 (inactive)
